Measured values drawn from patent US20190367631A1 for this set.

Molecular target: T1, mouse MSR1 on RAW264.7 cells (mouse, UniProt P30204 1-458)
T1 construct: whole, on cells; also called MSR1 positive RAW264.7 cells
T1 sequence (looked up): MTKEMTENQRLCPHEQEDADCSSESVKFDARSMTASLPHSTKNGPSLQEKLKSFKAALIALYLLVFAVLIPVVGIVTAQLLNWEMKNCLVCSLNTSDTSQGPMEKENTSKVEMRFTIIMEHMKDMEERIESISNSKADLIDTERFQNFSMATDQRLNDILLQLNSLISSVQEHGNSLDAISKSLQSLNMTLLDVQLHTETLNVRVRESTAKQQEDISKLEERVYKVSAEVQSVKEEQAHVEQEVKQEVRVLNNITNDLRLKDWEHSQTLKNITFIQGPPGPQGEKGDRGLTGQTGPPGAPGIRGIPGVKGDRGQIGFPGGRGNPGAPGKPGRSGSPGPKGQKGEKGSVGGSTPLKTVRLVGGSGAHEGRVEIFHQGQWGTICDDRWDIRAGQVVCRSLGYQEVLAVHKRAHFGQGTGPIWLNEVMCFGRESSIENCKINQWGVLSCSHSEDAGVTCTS
Assay: flow cytometry, RAW264.7 cells
Measurement Label: S/N (MFI over unstained MFI)

Binder | Measurement Label | Quantitative Readout
H1H27734P-N297Q (antibody, human IgG1, V domains shown, human IgG1 Fc with N297Q) VH: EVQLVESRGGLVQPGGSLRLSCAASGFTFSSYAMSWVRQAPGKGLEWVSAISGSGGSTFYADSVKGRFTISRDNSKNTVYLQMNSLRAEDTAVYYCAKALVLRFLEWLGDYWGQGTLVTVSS VL: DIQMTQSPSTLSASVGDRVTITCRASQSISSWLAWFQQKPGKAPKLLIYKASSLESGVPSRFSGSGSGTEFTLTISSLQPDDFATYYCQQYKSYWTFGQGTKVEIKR | S/N (MFI over unstained MFI) | 1
H1H27731P-N297Q (antibody, V domains shown, human IgG1 Fc with N297Q) VH: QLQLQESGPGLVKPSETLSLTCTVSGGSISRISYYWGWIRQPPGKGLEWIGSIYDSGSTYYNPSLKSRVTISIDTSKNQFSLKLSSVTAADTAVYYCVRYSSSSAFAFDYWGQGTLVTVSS VL: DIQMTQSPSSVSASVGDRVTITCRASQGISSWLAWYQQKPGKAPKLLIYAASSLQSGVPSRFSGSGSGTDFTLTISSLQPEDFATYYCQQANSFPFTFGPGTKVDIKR | S/N (MFI over unstained MFI) | 1
H1H21234N-N297Q (antibody, human IgG1, V domains shown, human IgG1 Fc with N297Q point mutation (EU numbering)) VH: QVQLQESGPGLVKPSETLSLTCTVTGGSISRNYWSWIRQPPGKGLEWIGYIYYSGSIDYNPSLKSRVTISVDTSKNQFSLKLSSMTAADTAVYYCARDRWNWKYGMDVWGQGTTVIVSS VL: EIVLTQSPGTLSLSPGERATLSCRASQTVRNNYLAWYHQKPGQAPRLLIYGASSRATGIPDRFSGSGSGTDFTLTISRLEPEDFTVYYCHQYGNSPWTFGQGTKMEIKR | S/N (MFI over unstained MFI) | 3
